- Target or test system: T1, cynomolgus PD-L1, his tagged (cPD-L1-his) (cynomolgus (Macaca fascicularis), UniProt G7PSE7 19-238)
- T1 construct: also called cyPD-L1-His; Cyno PD-L1
- T1 sequence (G7PSE7 entry or part of it limits assumed, form in doubt): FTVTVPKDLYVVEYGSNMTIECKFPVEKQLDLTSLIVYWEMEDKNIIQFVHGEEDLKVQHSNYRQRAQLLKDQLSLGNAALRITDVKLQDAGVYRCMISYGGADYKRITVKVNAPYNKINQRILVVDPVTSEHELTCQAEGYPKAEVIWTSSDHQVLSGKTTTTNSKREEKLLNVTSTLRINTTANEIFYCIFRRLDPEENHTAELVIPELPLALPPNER
- Assay info: ELISA on cynomolgus PD-L1
Measure name: ELISA cyno, Fold over Bkg (fold over background)
Output spec: scalar in fold over background, unitless text.

Worked cases, answers included:
{"Binder": "PAL759 (hybridoma 13F1.B7) (antibody, V domains shown, Mouse IgG purified from hybridoma supernatant) VH: EVQLQESGAELVRPGASVKLSCKASGYSFTDYYINWVKQRPGQGLEWIARIYPGSGNTYYNEKFKGKATLTAEKSSITAYMQLSSLTSEDSAVYFCARSYYYGSSYLFDYWGQGTTLTVSS VL: DILLTQSPAILSVSPGERVSFSCRASQSIGTSIHWYQQRTNGSPRLLIKYASESISGIPSRFSGSGSGTDFTLSINSVESEDIGDYYCQQSNNWPFTFGSGTKLEIK", "Unit name": "fold over background", "ELISA cyno, Fold over Bkg": 13.1}
{"Binder": "PAL787(3D10) (hybridoma CKH-3D10) (antibody, V domains shown, Mouse IgG purified from hybridoma supernatant) VH: QVTLKESGPGILQPSQTLSLTCSFSGFSLSTYGLGVGWIRQPSGKGLEWLANIWWNDDKFYDSVLKSRLTISKDTSNNQVFLKISSVDTSETATYYCAQTLHYYDGIAWFAYWGQGTLVTVSA VL: DIVMTQSQNFMSTSVGDRVSVTCKASHYVGTFVAWYQQKPGQSPKALIFSTSYRHTGVPDRFTGSGSGTDFTLTISNVQSEDLADYFCQQYYNSPLTFGAGTKLELK", "Unit name": "fold over background", "ELISA cyno, Fold over Bkg": 38.2}

Turning to the following binder.
Request: Look at this binder and give its reported ELISA cyno, Fold over Bkg. PAL788(3E3) (hybridoma CKH-3E3) (antibody, V domains shown, Mouse IgG purified from hybridoma supernatant) VH: QVQLQQPGAELVKPGASVKLSCKASGYTFTSNWMNWVKQRPGRGLEWIGRIHPSDSETHYHQKFKSKATLTVDKSSSTAYIQLSSLTSEDSAVYYCAHSSGDYGRDYWGQGTTLTVSS VL: NIVLTQSPASLAVSLGQRATISCRASESVDSYGNSFMHWYQQKPGQPPKLLIYLASNLQSGVPARFSGSGSRTDFTLTIDPVEADDAATYYCQQNNEDPWTFGGGTKLEIK
Result: 24.8

Data provenance: patent US20240067729A1
